Test system: Influenza A virus
Experiment: Antiviral activity against Influenza virus A H3N2 at 100 uM
Assay type: functional, organism-based
Calls of active or inactive are those of the source. The calls are words filed in the database; no cut-off is given here.

# SMILES_RECORD, Activity
rows = [
    ("C#C[C@@]1(O)[C@@H](CO)O[C@@H](n2cnc3c(NCc4cccc(Cl)c4)nc(Cl)nc32)[C@@H]1O", "inactive"),
    ("C#C[C@@]1(O)[C@@H](CO)O[C@@H](n2cnc3c(NC4CCCC4)nc(Cl)nc32)[C@@H]1O", "inactive"),
    ("C#C[C@@]1(O)[C@@H](CO)O[C@@H](n2cnc3c(N)ncnc32)[C@@H]1O", "inactive"),
    ("C#C[C@@]1(O)[C@@H](CO)O[C@@H](n2cnc3c(OC)nc(Cl)nc32)[C@@H]1O", "inactive"),
]
